Test system: KB
Assay: Cytotoxicity against human KB cells
Format: functional, cell-based
pIC50: −log10 of the molar value.
Classification field: enter rule met for pIC50 values not below 8, rule not met for values below it.

[
  {
    "molecule": "CCCCCCCCCCCC[C@@H](O)[C@H]1CC[C@H]([C@H](O)CC(CCCCC(=O)CCCC[C@@H](O)CCC2=C[C@H](C)OC2=O)OC(C)=O)O1 (some centres undefined)",
    "classification": "rule met"
  },
  {
    "molecule": "CCCCCCCCCCCC[C@@H](O)[C@H]1CC[C@H]([C@H](O)CC(CCCCC(O)CCCCCCCC2=C[C@H](C)OC2=O)OC(C)=O)O1 (some centres undefined)",
    "classification": "rule met"
  },
  {
    "molecule": "CCCCCCCCCCCC[C@@H](O)[C@H]1CC[C@@H]([C@@H](O)CCCCC(=O)CCCCC(O)CCC2=C[C@H](C)OC2=O)O1 (some centres undefined)",
    "classification": "rule not met"
  },
  {
    "molecule": "CCCCCCCCCCCC[C@@H](O)[C@H]1CC[C@H]([C@H](O)CCCCC(O)CCCC[C@@H](O)CCC2=C[C@H](C)OC2=O)O1 (some centres undefined)",
    "classification": "rule met"
  },
  {
    "molecule": "CCCCCCCCCCCC[C@@H](O)[C@H]1CC[C@H]([C@H](O)CCCC(O)C(O)CCCCC(=O)CCC2=C[C@H](C)OC2=O)O1 (some centres undefined)",
    "classification": "rule not met"
  },
  {
    "molecule": "CCCCCCCCCCCC[C@@H](O)[C@H]1CC[C@H]([C@H](O)CC(CCCCC(=O)CCCCC(O)CCC2=C[C@H](C)OC2=O)OC(C)=O)O1 (some centres undefined)",
    "classification": "rule met"
  },
  {
    "molecule": "CCCCCCCCCCCC[C@@H](O)[C@H]1CC[C@H]([C@H](O)CC(CCCCC(=O)CCCCCCCC2=C[C@H](C)OC2=O)OC(C)=O)O1 (some centres undefined)",
    "classification": "rule not met"
  }
]
